- System: 242566-281-R-J2-PDC complex spheroid viability;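 also: spheroids exposed to compound for 7 days before readout; 100% = DMSO vehicle control wells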
- test name: Anticancer human tumor 242566-281-R-J2-PDC patient-derived pancreatic carcinoma cell line growth inhibition [RAS]
- experimental parameters: second compound 0.00949 µM; first compound 1 µM; active compounds read low
measured endpoint: viability, T/C (%)
// note: answer is a bare numeric in %

Solved entries (count: 3):
compound | assayed target | viability, T/C [%]
CC(Nc1ccc2c(c1)OCCn1cc(N3C(=O)OCC3C(F)F)nc1-2)C(N)=O (centres undefined) + CCn1c(-c2cc(N3CCN(C)CC3)cnc2C(C)OC)c2c3cc(ccc31)-c1csc(n1)CC(NC(=O)C1CC1C)C(=O)N1CCCC(N1)C(=O)OCC(C)(C)C2 | 242566-281-R-J2-PDC complex spheroid viability | 11.3
C=CC(=O)N1CCN(c2nc(OCC3CCCN3C)nc3c(F)c(-c4nc(N)cc(C)c4C(F)(F)F)c(Cl)cc23)C(C)C1 (centres undefined) + CCn1c(-c2cc(N3CCN(C)CC3)cnc2C(C)OC)c2c3cc(ccc31)-c1csc(n1)CC(NC(=O)C1CC1C)C(=O)N1CCCC(N1)C(=O)OCC(C)(C)C2 | 242566-281-R-J2-PDC complex spheroid viability | 41.3
CC1(O)CCCC1n1c(=O)c(C(F)F)cc2cnc(NC3CCN(S(C)(=O)=O)CC3)nc21 (centres undefined) + CCn1c(-c2cc(N3CCN(C)CC3)cnc2C(C)OC)c2c3cc(ccc31)-c1csc(n1)CC(NC(=O)C1CC1C)C(=O)N1CCCC(N1)C(=O)OCC(C)(C)C2 | 242566-281-R-J2-PDC complex spheroid viability | 51.4

Let us examine a further case.
Task: Request the reported viability, T/C associated with O=C(c1ccc(F)c(F)c1Nc1ccc(I)cc1F)N1CC(O)([C@@H]2CCCCN2)C1 + CCn1c(-c2cccnc2C(C)OC)c2c3cc(ccc31)N1CCOC(CC(NC(=O)C(C(C)C)N(C)C(=O)C3(F)CCN(C(=O)C#CC(C)(C)N(C)C)CC3)C(=O)N3CCCC(N3)C(=O)OCC(C)(C)C2)C1
Result: 21
